- targetEntity: ZACN (Homo sapiens, UniProt Q401N2)
- protocolText: Two-electrode voltage-clamp, ZACN expressed in Xenopus laevis oocytes: inhibition or modulation of spontaneous, zinc-activated and suramin-activated current
- Assay type: cell-based
- Set-up: host or cells: Xenopus laevis oocytes injected with cRNA (pGEMHE vector, T7 transcript)
- details: IC50 at 500 μM vs 2 mM Zn2+
- Description: Stage IV oocytes from Xenopus laevis were injected with Ing of ZACN human mRNA. Prior to recording, oocytes were incubated in the oocyte Ringer's Solution (OR2) with 10 μM D-tubocurarine to inhibit spontaneous channel opening. The oocytes were incubated at 14° C. for three to five days following mRNA injection before recording with two-electrode voltage-clamp. […]
readoutName: mode of antagonism

Solved entries:
CNCCCN1c2ccccc2CCc2ccccc21 :: non-competitive
CNCCC(Oc1ccc(C(F)(F)F)cc1)c1ccccc1 (stereo not shown) :: non-competitive
CN1CCN2c3ccccc3Cc3ccccc3C2C1 (stereo not shown) :: non-competitive
CN(C)CCC=C1c2ccccc2COc2ccccc21 [doxepin] :: non-competitive
CCOc1ccccc1OC(c1ccccc1)C1CNCCO1 (stereo not shown) :: non-competitive

Input: Look up mode of antagonism: COc1ccc(C(CN(C)C)C2(O)CCCCC2)cc1 (stereo not shown)
Output: non-competitive

Input: Look up mode of antagonism: CNCC[C@@H](Oc1ccccc1C)c1ccccc1
Output: non-competitive

----------
- targetEntity: ZACN (Homo sapiens)
- Sequence (Q401N2 26-412): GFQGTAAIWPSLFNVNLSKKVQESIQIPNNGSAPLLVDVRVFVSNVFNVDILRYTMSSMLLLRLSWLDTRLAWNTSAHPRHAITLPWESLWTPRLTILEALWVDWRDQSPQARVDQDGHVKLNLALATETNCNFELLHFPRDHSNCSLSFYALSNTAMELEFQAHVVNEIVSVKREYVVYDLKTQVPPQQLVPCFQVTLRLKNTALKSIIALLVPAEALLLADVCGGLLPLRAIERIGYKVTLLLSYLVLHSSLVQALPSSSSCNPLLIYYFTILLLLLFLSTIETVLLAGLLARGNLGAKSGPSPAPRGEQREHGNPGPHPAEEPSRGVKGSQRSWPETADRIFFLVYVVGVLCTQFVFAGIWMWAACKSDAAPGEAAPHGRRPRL
- protocolText: Two-electrode voltage-clamp, ZACN expressed in Xenopus laevis oocytes: agonist-induced current
- Format: cell-based
- Set-up: host or cells: Xenopus laevis oocytes injected with cRNA (pGEMHE vector, T7 transcript)
- details: ZACN expressed in X. laevis oocytes; read-out: EC50 on ZACN
readoutName: pEC50
// field semantics: pEC50 = negative decimal log of concentration (mol/L)

Input: Look up pEC50: [Cl-].[Cl-].[Zn+2] [ZnCl2, Zinc chloride]
Output: 2.78

----------
- targetEntity: ZACN (Homo sapiens, UniProt Q401N2)
- protocolText: Two-electrode voltage-clamp, ZACN expressed in Xenopus laevis oocytes: agonist-induced current
- Assay type: cell-based
- Parameters: host or cells: Xenopus laevis oocytes injected with cRNA (pGEMHE vector, T7 transcript)
- details: read-out: approximate EC50 Zn2+ concentration for this receptor
readoutName: EC50

Input: Look up EC50: [Cl-].[Cl-].[Zn+2] [ZnCl2, Zinc chloride]
Output: ~500 µM

----------
- targetEntity: ZACN (Homo sapiens, UniProt Q401N2)
- protocolText: Two-electrode voltage-clamp, ZACN expressed in Xenopus laevis oocytes: agonist-induced current
- Format: cell-based
- Parameters: host or cells: Xenopus laevis oocytes injected with cRNA (pGEMHE vector, T7 transcript)
- details: ZACN expressed in X. laevis oocytes; read-out: EC50 in activating ZACN
- Procedure: The cDNA encoding wild type, human ZACN was purchased from OpenBiosystems, and cloned into the pGEMHE vector in the T7 orientation. […] After digestion of the DNA template by RNase-free DNase I, cRNAs were purified and resuspended in diethyl pyrocarbonate (DEPC)-treated water. cRNA integrity was examined on a 1% agarose gel, and cRNA concentration was determined by optical density measurements at 260 nm using an Eppendorf Biophotometer. […]
readoutName: pEC50
// field semantics: pEC50 = negative decimal log of concentration (mol/L)

Input: Look up pEC50: [Cl-].[Cl-].[Zn+2] [ZnCl2, Zinc chloride]
Output: 2.78

----------
- targetEntity: ZACN (Homo sapiens)
- protocolText: Two-electrode voltage-clamp, ZACN expressed in Xenopus laevis oocytes: agonist-induced current
- Format: cell-based
- Design: host or cells: Xenopus laevis oocytes injected with cRNA (pGEMHE vector, T7 transcript)
readoutName: agonist activity on human ZACN (words)

Cc1c(C2(c3cc(C(C)C)c(O)c(Br)c3C)OS(=O)(=O)c3ccccc32)cc(C(C)C)c(O)c1Br :: activate the human ZACN
O=S1(=O)OC(c2cc(Br)c(O)c(Br)c2)(c2cc(Br)c(O)c(Br)c2)c2ccccc21 :: activate the human ZACN
O=C(Nc1cc(C(=O)Nc2ccc(S(=O)(=O)O)cc2S(=O)(=O)O)cc(C(=O)Nc2ccc(S(=O)(=O)O)cc2S(=O)(=O)O)c1)Nc1cc(C(=O)Nc2ccc(S(=O)(=O)O)cc2S(=O)(=O)O)cc(C(=O)Nc2ccc(S(=O)(=O)O)cc2S(=O)(=O)O)c1 :: agonist
O=C(Nc1cc(C(=O)Nc2ccc(S(=O)(=O)O)cc2)cc(C(=O)Nc2ccc(S(=O)(=O)O)cc2)c1)Nc1cc(C(=O)Nc2ccc(S(=O)(=O)O)cc2)cc(C(=O)Nc2ccc(S(=O)(=O)O)cc2)c1 :: agonist
